B1: library; numbered along this chain (parent)
chain: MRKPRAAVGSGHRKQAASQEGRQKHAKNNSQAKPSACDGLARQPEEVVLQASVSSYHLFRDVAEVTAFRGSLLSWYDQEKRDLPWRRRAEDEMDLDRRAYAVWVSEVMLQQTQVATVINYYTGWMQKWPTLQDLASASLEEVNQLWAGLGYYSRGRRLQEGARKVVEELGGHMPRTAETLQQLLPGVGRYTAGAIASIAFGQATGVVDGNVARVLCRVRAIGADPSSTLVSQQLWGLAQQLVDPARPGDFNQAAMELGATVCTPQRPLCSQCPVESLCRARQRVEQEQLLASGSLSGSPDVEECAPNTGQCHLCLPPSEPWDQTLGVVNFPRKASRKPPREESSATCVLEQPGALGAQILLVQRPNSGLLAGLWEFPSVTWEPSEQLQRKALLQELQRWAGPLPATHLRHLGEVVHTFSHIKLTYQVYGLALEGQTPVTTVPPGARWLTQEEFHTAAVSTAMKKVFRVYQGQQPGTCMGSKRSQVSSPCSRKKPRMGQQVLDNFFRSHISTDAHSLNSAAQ

Variants of: B1
Method Notes: 8OG:A repair function score (normalized; synonymous = 0, nonsense = -1) (normalized log-likelihood score); higher = more repair activity (WT-like);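 note: cells sorted at 72 h after reporter transfection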
Run Parameters: with 8OG:A DNA repair reporter (GFP) in HEK-293 MUTYH KO cells
Measured 8OG:A repair function score, listed per entry.
// no unit string in output, number only

The cases that follow already have their 8OG:A repair function score on record.
Consider V242W . Its measured 8OG:A repair function score is -1.01

Consider L83K . Its measured 8OG:A repair function score is -0.987

Consider G471C . Its measured 8OG:A repair function score is -0.0198

Consider A196H . Its measured 8OG:A repair function score is -0.673

Consider T417E . Its measured 8OG:A repair function score is 0.0158

Consider S510I . Its measured 8OG:A repair function score is -0.0731

Consider T460P . Its measured 8OG:A repair function score is -0.347

Consider W381I . Its measured 8OG:A repair function score is 0.0761

Consider H312A . Its measured 8OG:A repair function score is -0.0906

Consider Y425F . Its measured 8OG:A repair function score is -0.11

Then there is this variant:
Consider V348F . Its measured 8OG:A repair function score is -0.996
